- Tgt: T1, Mouse PD-L1 on CHO cells (mouse, UniProt Q9EP73 19-290)
- T1 construct: Expressed in CHO cells for the cross-reactivity test; also called mPD-L1; murine PD-L1 protein
- Assay Comment: flow cytometry, CHO-mPD-L1 cells, Anti-human IgG Fc-FITC, antibody 1 µg/ml
For each entry below, report its % cells in the FITC-positive gate value.

A selection of reference data follows.
| Binder | Result |
| --- | --- |
| 24-1F4-mHvKv-IgG1 (antibody, V domains shown) VH: EVQLRESGPSLVRPSQTLSLTCSVTGDSFTSGYWNWIRKFPGNELESMGYISYSGSTYYNPSLKSRISITRDTSKSQFYLQLSSVTAEDTATYYCARSEGWLLPFAYWGQGTLVTVSA VL: DIVMSQSPSSLPVSVGEKVTMSCKSSQSLLYSSNQKNSLAWYQQKPGQSPKLLIYWASTRESGVPDRFTGSGSGTDFTLTISSVQAEDLSVYYCQQYYGYPFTFGSGTKLEIK | 15.5% |
| 23-4A8-mHvKv-IgG1 (antibody, V domains shown) VH: EVQLQESGPSLVKPSQTLSLTCSVTGDSITSGYWNWIRKFPGNKLEYMGYISYTGSTYYNPSLKSRFSITRDTSKNQYFLQLNSVTTEDTATYYCASYEGWLLPFAYWGQGTLVTVSA VL: DIVMSQSPSSLAVSVGEKVPLSCKSSQSLLYSSNQKSSLAWYQQKPGQSPKLLIYWASTRESGVPDRFTGSGSGTDFTLTISSVKAEDLAVYYCQQYYGYPFTFGSGTKLEIK | 3.07% |
| 23-2A6-mHvKv-IgG1 (antibody, V domains shown) VH: QVQLKESGPGLVAPSQSLSITCTVSGFSLTSYDISWIRQPPGKGLEWLGAIWTGGGTNYNSAFMSRLSISKDNSKSQVFLKMNSLQTDDTAIYYCVRDPYYYAMDYWGQGTSVTVSS VL: DIQMNQSPSSLSASLGDTITITCHASQNLNVWLSWYQQKPGNIPKLLIYKASNLHTGVPSRFSGSGSGTGFTLTISSLQPEDIATYYCQQGQSYPRTFGGGTKLEIK | 0.886% |

Read the next record carefully.
Prompt: Request the reported % cells in the FITC-positive gate associated with 33-10C9-mHvKv-IgG1 (antibody, V domains shown) VH: QVQLQQPGAELVKPGSSVKLSCKASGYTFTTYYIYWVKQRPGQGLEWIGGINPYNGGTSFNEKFESKATLTVDISSSTAFMQLSSLTSEDSAVYYCTRDGNYVDYWGQGTTLTVSS VL: QIVLTQSPAIMSASPGEKVTITCSASSTVSYVHWLQQKPDTSPKLWIYSTSNLASGVPARFSGSGSGTSYSLTISRMEAEDAATYYCQQRSSSPPTFGSGTKLEIK
Completion: 0.556%
